Source: patent US10757937B2

# testedTarget: PYL11 (Arabidopsis thaliana, UniProt Q9FJ50)
# Construct: made in house; host or cells: E. coli BL21[DE3]pLysS
# Sequence (Q9FJ50 whole entry): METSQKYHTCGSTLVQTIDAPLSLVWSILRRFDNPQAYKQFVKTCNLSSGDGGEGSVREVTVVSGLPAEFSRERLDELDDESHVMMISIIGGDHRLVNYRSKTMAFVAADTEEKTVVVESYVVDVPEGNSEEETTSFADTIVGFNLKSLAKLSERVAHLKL
# Sequence (Q9CAJ0 23-511 partner): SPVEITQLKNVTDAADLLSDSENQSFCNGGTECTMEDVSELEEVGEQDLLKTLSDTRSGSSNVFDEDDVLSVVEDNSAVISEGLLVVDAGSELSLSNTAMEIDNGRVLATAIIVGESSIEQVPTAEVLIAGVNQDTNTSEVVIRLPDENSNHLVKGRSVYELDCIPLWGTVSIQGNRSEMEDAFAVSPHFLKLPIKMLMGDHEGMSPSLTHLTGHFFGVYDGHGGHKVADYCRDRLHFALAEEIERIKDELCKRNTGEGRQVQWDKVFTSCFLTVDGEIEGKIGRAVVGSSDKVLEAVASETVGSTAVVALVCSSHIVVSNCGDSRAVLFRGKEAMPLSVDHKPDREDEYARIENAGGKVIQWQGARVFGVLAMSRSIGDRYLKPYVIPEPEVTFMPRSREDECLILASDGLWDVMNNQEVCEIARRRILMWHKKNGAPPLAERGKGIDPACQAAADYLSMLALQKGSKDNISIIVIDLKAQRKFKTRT
# procedureText: receptor-mediated PP2C (HAB1) inhibition in vitro assay
# Type: biochemical
# runConditions: Table VII; read-out: PP2C Dose Curves PYL11 (IC50)
Could you please mark Condition met for values of IC50 below 3 µM and Condition not met for values at or above it?

Could you please tell me whether IC50 recorded for "N#Cc1ccc(CS(=O)(=O)NC(=O)C2(c3ccccc3F)CCCC2)cc1" is less than 3 µM?
Condition not met

Could you please tell me whether IC50 recorded for "N#Cc1ccc(CS(=O)(=O)NC(=O)C2(c3cccc(F)c3)CC2)cc1" is less than 3 µM?
Condition not met

Could you please tell me whether IC50 recorded for "N#Cc1ccc(CS(=O)(=O)NC(=O)C2(c3ccc(F)cc3)CC2)cc1" is less than 3 µM?
Condition not met

Could you please tell me whether IC50 recorded for "CC(C)(C(=O)NS(=O)(=O)Cc1ccc([N+](=O)[O-])cc1)c1ccccc1" is less than 3 µM?
Condition met

Could you please tell me whether IC50 recorded for "CCC(CC)(C(=O)NS(=O)(=O)Cc1ccc([N+](=O)[O-])cc1)c1ccccc1" is less than 3 µM?
Condition met

Could you please tell me whether IC50 recorded for "N#Cc1ccc(CS(=O)(=O)NC(=O)C2(c3ccc(F)cc3)CCC2)cc1" is less than 3 µM?
Condition met

Could you please tell me whether IC50 recorded for "CC(C)(C(=O)NS(=O)(=O)Cc1ccc(C#N)cc1)c1cccc(C#N)c1" is less than 3 µM?
Condition not met

Could you please tell me whether IC50 recorded for "Cc1ccccc1C1(C(=O)NS(=O)(=O)Cc2ccc(C#N)cc2)CC1" is less than 3 µM?
Condition not met

Could you please tell me whether IC50 recorded for "N#Cc1ccc(CS(=O)(=O)NC(=O)C2(c3cccc(C#N)c3)CC2)cc1" is less than 3 µM?
Condition met

Could you please tell me whether IC50 recorded for "N#Cc1ccc(CS(=O)(=O)NC(=O)C2(c3ccc(F)cc3)CCCCC2)cc1" is less than 3 µM?
Condition not met

Could you please tell me whether IC50 recorded for "Cc1cccc(C2(C(=O)NS(=O)(=O)Cc3ccc(C#N)cc3)CCCC2)c1" is less than 3 µM?
Condition not met

Could you please tell me whether IC50 recorded for "COc1ccccc1C1(C(=O)NS(=O)(=O)Cc2ccc(C#N)cc2)CCC1" is less than 3 µM?
Condition not met
